target: HIV-1 JRFL envelope glycoprotein gp41 (N-trimer of the prehairpin intermediate) (HIV-1 strain JRFL); assay: cell-based or functional assay
Bridges are numbered along the chain shown (N, C = ends). [ ]: non-standard residue; d: D form.
Quick list: IC50, JRFL pseudovirion entry per entry.
Report the figure in µM without appending any unit label.

Example binders with recorded IC50, JRFL pseudovirion entry:
>  <binder>
Ac-[dK]G[dA][dC][dD][dY][dP][dE][dW][dQ][dW][dL][dC][dA][dA]-NH2 (disulfide 4-13 (inferred); also: dimer, N- to N-terminal link by zero length spacer) [N0N(PIE7)2]

>  <result>
1.09

$$$$
>  <binder>
Ac-[dK]G[dA][dC][dD][dY][dP][dE][dW][dQ][dW][dL][dC][dA][dA]G[dK]-NH2 (disulfide 4-13 (inferred)) [K-PIE7-GK]

>  <result>
14.8

$$$$

Next up:
Asked: Recorded IC50, JRFL pseudovirion entry of Ac-[dK]G[dA][dC][dD][dY][dP][dE][dW][dR][dW][dL][dC][dA][dA]-NH2 (disulfide 4-13 (inferred)) [PIE2] , please.
Given back: 66
